Biological target: T1, Recombinant human IL-23R_huFC (RnD) (human, UniProt Q5VWK5 24-353)
T1 sequence (looked up): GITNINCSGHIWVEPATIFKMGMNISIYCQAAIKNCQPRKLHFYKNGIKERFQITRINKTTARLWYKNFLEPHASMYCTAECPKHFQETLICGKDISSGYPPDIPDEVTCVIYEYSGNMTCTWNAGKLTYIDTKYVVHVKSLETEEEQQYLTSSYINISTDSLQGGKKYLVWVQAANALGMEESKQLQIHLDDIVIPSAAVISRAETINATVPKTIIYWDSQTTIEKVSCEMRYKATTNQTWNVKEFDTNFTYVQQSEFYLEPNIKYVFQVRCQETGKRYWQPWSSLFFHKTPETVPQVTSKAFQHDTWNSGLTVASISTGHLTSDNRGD
Test: IL-23/IL-23R competitive binding ELISA, human
quantity.kind: IC50 (nM)
Write down the numeric answer in nM and omit the unit.

Lab book: IC50 of RXQTWQCFXXENN (Ac-[(D)Arg]-Cyclo-[[Abu]-QTWQC]-[Phe[4-(2-aminoethoxy)]]-[2-Nal]-[4-amino-4-carboxy-tetrahydropyran]-ENN-NH2; cyclized by Abu-Cys thioether) [Peptide 993] noted as 2
